# System: K4 kissing-loop RNA reporter;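 note: bound reporter read as fluorescence of individual clusters on recovered sequencing chips by microscopy, with normalized cluster intensities fitted with a binding model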
# Test Protocol: apparent KD of K4 kissing-loop reporter; higher = weaker reporter binding
# Condition Summary: Eterna round: R107; input ligand: theophylline 20 uM
Think of 0.3 µM as a floor: if apparent KD of K4 kissing-loop reporter stands on it or above, it is Y; beneath it, N.

{"columns": ["Query Sequence", "Label"],
 "data": [
  ["GGUGCUGUCUGUGCCGCCCUCCUCGUCCCUCGAGGACCGGUACGGCCGCCACUCGAGUGAUGUUCGGGUAGCCAUCCCUGCCAGC [BDazzled - #20 Exc. Tryptophan A]", "Y"],
  ["GGGCGCGGCGCGGCCGCCACUGCGCCUGGGUGCUCGCCGAGUGAUGUUCGUCGGCGGUUGGGUGGCAGGACCGGGUGCCGGCCCG [BDazzled - #17 SS Tryptophan B]", "Y"],
  ["AAUGUACAGGGAAGGAGCGUAGUCCAGUGAUGUUGGAAUUAAAUACCAGUGAUGUUGGUUAUACAGGUAGGUCGCCCUAAAGUGC [KL-XARG-B20]", "N"],
  ["UUAGGAGUGGGAGGAUAUCCUAAUAUGGGUGAUGUUAGCGAUGUUGAAAGUGUAGUGAUGUUGUGCGGAGAAGGUCCAGUGUUGA [BDazzled - #13 - Exc. FMN B]", "N"],
  ["AGACUACCACACUGUCAAUAGACAGUGAGCUAGGAUAUGCUGAUAAGCAGAAGGAGUGAUGUUCCGAGGUAGUCAAUAAAAUAAU [FmnAX 13 G29+G66]", "Y"],
  ["AAAUUUGCUCAUGAUACCAGCCAGUGAUGUUGGUUGGUCCACCGUGUCCGAACAUUAAGCGGCCCUUGGCAGCAUGAUGCGCGUA [Ininveaen]", "N"],
  ["GUCUGUGUACUAGGAUAUGGUUGCAGACAGUCAGGUCGCCUUUUCGGCGGCCAGUGAUGUUGGUGGCCAGAAGGAGUACGUGAAG [Biririge]", "Y"],
  ["UAUAGAAACGUCCUAUCAAUAAAAUGGGAAGGAGCGAGGAAGAACUCAGGUAGGUCGCCCAAUAACCUUAGUGAUGUUAAGGAAA [Version 1]", "N"],
  ["AAUUUUAAUAAUAAAUAAUAAAUAAAUGAUACCAGUAUUUUUUUUUACCCUUGGCAGCGUAUAUAAGGGCAGUGAUGUUGUCAAA [whbob_SS_Theo_A_w58]", "N"],
  ["UCGUUAAAAGCGGCCGCCACUGCCAGAGCUCUGGAAAAGGCUGGAGUGAUGUUCUGCCUAGUAGACAGGACCGGGCUAUUGGAUU [theeternabot_sameState_KL_Trp_B_29]", "Y"],
  ["UGUAUGUGAUUUGAUACCAGACCAGCUGGUGUUUCAAGAGUGAUGUUCUUGUAGGUUUGGGUCCCUUGGCAGCAAAUCGCAUACU [KL-SSTheoB15]", "N"]
]}
